Reported Accumulative excretion percentage values follow for various compounds
# ASSAY NAME: Fecal excretion study in rats after oral NS, SF or CNS (LC–MS/MS)
# Format: in vivo
# APPLIED CONDITIONS: rat feces, oral CNS 110 mg/kg, 72 h

Answered cases to consult:
Ask | What Accumulative excretion percentage value was documented for this compound, CC(C)=CCC[C@](C)(O[C@@H]1O[C@H](CO[C@@H]2O[C@H](CO)[C@@H](O)[C@H](O)[C@H]2O)[C@@H](O)[C@H](O)[C@H]1O)[C@H]1CC[C@]2(C)[C@@H]1[C@H](O)C[C@@H]1[C@@]3(C)CC[C@H](O[C@@H]4O[C@H](CO)[C@@H](O)[C@H](O)[C@H]4O[C@@H]4O[C@H](CO)[C@@H](O)[C@H](O)[C@H]4O)C(C)(C)[C@@H]3CC[C@]12C [ginsenoside Rb1] ?
Reply | 1.923±0.515%

Ask | # lookup: Accumulative excretion percentage of CC(C)=CCC[C@](C)(O[C@@H]1O[C@H](CO)[C@@H](O)[C@H](O)[C@H]1O)[C@H]1CC[C@]2(C)[C@@H]1[C@H](O)C[C@@H]1[C@@]3(C)CC[C@H](O[C@@H]4O[C@H](CO)[C@@H](O)[C@H](O)[C@H]4O[C@@H]4O[C@H](CO)[C@@H](O)[C@H](O)[C@H]4O)C(C)(C)[C@@H]3CC[C@]12C [ginsenoside Rd]
Reply | 4.322±1.123%

We now examine a further compound.
Ask | # lookup: Accumulative excretion percentage of CC(C)=CCC[C@](C)(O[C@@H]1O[C@H](CO)[C@@H](O)[C@H](O)[C@H]1O)[C@H]1CC[C@]2(C)[C@@H]1[C@H](O)C[C@@H]1[C@@]3(C)CC[C@H](O)C(C)(C)[C@@H]3[C@@H](O[C@@H]3O[C@H](CO)[C@@H](O)[C@H](O)[C@H]3O[C@@H]3O[C@@H](C)[C@H](O)[C@@H](O)[C@H]3O)C[C@]12C [ginsenoside Re]
Reply | 6.027±1.613%
